Protocol description: yeast display, Sf9 membrane polyspecificity reagent, FACS + sequencing; frameworks hold sequencing errors

# Residues, polyreactivity (PSR sort gate)
measured = [
    ("QVQLVESGGGLVQAGGSLRLSCAASGIIFFSNTMVGYRQAPGKDREFVAAITWSTGNTYYADSVKGRFTISRDNAKNTVYLQMNSLKTEDTAVYYCYAEYLVITLYGGVEFDYWGQGTQVTVSS", "low polyreactivity"),
    ("QVQLVESGGGLVQAGGSLRLSCAASGSTFWPYAMGWYRQAPGKERELVAAITRSGGSTYYADSVKGRFTISRDNAKNTVYLQMNSLKPEDTAVYYCAKYTSSRFEYDYWGQGTQVTVSS", "low polyreactivity"),
    ("QVQLQESGRRPGAAGGSPRMSCAASGNIFCVAVMGRYRQAPGKERELVASIGFGCTTYYADSVKCRFTISRDNAKNTVYLQMFSLKPEDTAVYYCAAPHYDWGELDYWGQGTQVPVSS", "low polyreactivity"),
]
